Biological target: T1, E. coli (UTI89) FimH lectin domain truncate (Escherichia coli UTI89, strain)
T1 chain: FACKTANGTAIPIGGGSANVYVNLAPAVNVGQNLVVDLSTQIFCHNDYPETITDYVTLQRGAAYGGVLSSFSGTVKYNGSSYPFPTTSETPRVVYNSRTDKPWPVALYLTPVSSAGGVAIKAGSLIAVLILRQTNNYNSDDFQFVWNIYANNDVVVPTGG
Assay: ELISA
observable: binding result

Could you please provide reported binding result for Kp2 2C07 mAb (chimeric murine/human IgG) (antibody, V domains shown) VH: EVKLVESGEGLVKPGGSLKLSCAASGFTFSSYAMSWVRQTPEKRLDWVAYISSGGDHIYYADTVKGRFTISRDNARNTLYLQMSSLKSEDTAMYYCTRDTGYYVSRYFDVWGTGTTVTVSS VL: DIVMTQSQKFMSTSVGDRVSVTCKASQNVVTNVAWYQQKSGQSPKVVIYSASFRSSGVPDRFTGSGSGTDFTLTISNVQSEDLAEYFCHQYNSHPLTFGGGTKLEIK ? Thanks! binds

Could you please provide reported binding result for Kp1 2H04 mAb (chimeric murine/human IgG) (antibody, V domains shown) VH: EVQLQQSGAELVKPGASVKLSCKASGYTFTSYWMHWVKQRPGQGLEWIGLIHPNSSSTYYNEKFKTRATLTVDKSSSTAYMQLSSLTSEDSAVYYCARLGYGNSYWYFDVWGTGTTVTVSS VL: QIVLTQSPALMAASPGEKVTITCSVSSSISSSNLHWYQQKSETSPKPWIYGTSNLASGVPIRFSGSGSGTSYSLTISSLEAEDAATYYCQQWRSYPWTFGGGTKLEIK ? Thanks! binds

Could you please provide reported binding result for Ec1 F7 mAb (chimeric murine/human IgG) (antibody, V domains shown) VH: EVQLQQPGPVLVKPGPSVKISCKASGFTFTDYFIHWVKQSHGKSLEWIGLVSPYNGGTYYNQQFKGKATLTVDTSSSTAYMDLNSLTSEDSAVYYCTRLLRGYWYFDVWGTGTTVTVSS VL: QIVLTQSPALMAASPGEKVTITCSVSSSIGSSNLHWYQQKSETSPKPWIYGTSNLASGVPVRFSGSGSGTSYSLTISSMEAEDAATYYCQQWSTYPYTFGGGTKLEIK ? Thanks! binds

Could you please provide reported binding result for Ec3 B7 mAb (chimeric murine/human IgG) (antibody, V domains shown) VH: EVQLQQPGAELVRPGASVKMSCKASGYTFTIYNLHWVKQTPRQGLEWIGTIYPGDGDTSYNQKFKGKATLTVDKSSSTAYMQLSNLTSEDSAVYFCAREGDYGPWFAYWGQGTLVTVSA VL: QIVLTQSPAIMSASPGEKVTMTCRASSSVSSSYLHWYQQKSGASPKLWIYSSSNLASGVPARFSGSGSGTSYSLTINSVEAEDAATYYCQHYGSYPLTFGGGTKLEIK ? Thanks! binds
